target: Kappa-type opioid receptor (Homo sapiens); assay: Agonist activity at kappa-opioid receptor (unknown origin) at 10 uM after 90 mins by [35S]GTPgammaS binding assay; type: functional
Activity calls are given as the source filed them. No cut-off for these calls is given here.
Possible outcomes: active, inactive

[[record]]
compound = "N=C(N)NCCC[C@@H]1NC(=O)[C@H](CCCNC(=N)N)NC(=O)[C@H](NC(=O)[C@H](Cc2ccccc2)NC(=O)CNC(=O)CNC(=O)[C@H](Cc2ccc(O)cc2)NCC2CC2)CC(=O)NC[C@@H](C(=O)N[C@@H](CCCNC(=N)N)C(=O)N2CCC[C@H]2C(=O)N[C@@H](CCCCN)C(N)=O)NC1=O"
label_value = "active"

[[record]]
compound = "N=C(N)NCCC[C@@H]1NC(=O)[C@H](CCCNC(=N)N)NC(=O)[C@H](NC(=O)[C@H](Cc2ccccc2)NC(=O)CNC(=O)CNC(=O)[C@H](Cc2ccc(O)cc2)NC(=O)c2ccccc2)CC(=O)NC[C@@H](C(=O)N[C@@H](CCCNC(=N)N)C(=O)N2CCC[C@H]2C(=O)N[C@@H](CCCCN)C(N)=O)NC1=O"
label_value = "active"

[[record]]
compound = "C[C@@H]1NC(=O)[C@H](CCCNC(=N)N)NC(=O)[C@H](NC(=O)[C@H](Cc2ccccc2)NC(=O)CNC(=O)CNC(=O)[C@H](Cc2ccc(O)cc2)NCc2ccccc2)CC(=O)NCC(C(=O)N[C@@H](CCCNC(=N)N)C(=O)N2CCC[C@H]2C(=O)N[C@@H](CCCCN)C(N)=O)NC1=O (some centres undefined)"
label_value = "inactive"

[[record]]
compound = "CN[C@@H](Cc1ccc(O)cc1)C(=O)NCC(=O)NCC(=O)N[C@@H](Cc1ccccc1)C(=O)N[C@@H]1CC(=O)NC[C@@H](C(=O)N[C@@H](CCCNC(=N)N)C(=O)N2CCC[C@H]2C(=O)N[C@@H](CCCCN)C(N)=O)NC(=O)[C@H](CCCNC(=N)N)NC(=O)[C@H](CCCNC(=N)N)NC1=O"
label_value = "active"


* * *

biological target: Kappa-type opioid receptor (Homo sapiens) (UniProt P41145); assay: Agonist activity at kappa-opioid receptor (unknown origin) at 10 uM after 90 mins by [35S]GTPgammaS binding assay; type: functional
Sequence (P41145 whole entry): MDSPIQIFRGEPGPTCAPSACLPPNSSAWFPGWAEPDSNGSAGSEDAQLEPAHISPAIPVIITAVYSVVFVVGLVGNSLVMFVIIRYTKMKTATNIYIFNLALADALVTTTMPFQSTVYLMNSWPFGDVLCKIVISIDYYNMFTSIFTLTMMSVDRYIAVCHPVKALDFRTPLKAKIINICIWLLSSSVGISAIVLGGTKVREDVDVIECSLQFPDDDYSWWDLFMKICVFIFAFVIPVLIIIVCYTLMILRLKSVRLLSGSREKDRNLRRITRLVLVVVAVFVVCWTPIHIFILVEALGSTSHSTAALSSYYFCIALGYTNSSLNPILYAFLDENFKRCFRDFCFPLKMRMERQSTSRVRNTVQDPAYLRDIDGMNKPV
Active and inactive are the calls of the source. The calls are words filed in the database; no cut-off is given here.
Possible outcomes: active, inactive

[[record]]
smiles_notation = "C[C@H](NC(=O)CNC(=O)CNC(=O)[C@H](Cc1ccc(O)cc1)NCc1ccccc1)C(=O)N[C@@H]1CC(=O)NC[C@@H](C(=O)N[C@@H](CCCNC(=N)N)C(=O)N2CCC[C@H]2C(=O)N[C@@H](CCCCN)C(N)=O)NC(=O)[C@H](CCCNC(=N)N)NC(=O)[C@H](CCCNC(=N)N)NC1=O"
label_value = "inactive"

[[record]]
smiles_notation = "C[C@@H]1NC(=O)[C@H](NC(=O)[C@H](Cc2ccccc2)NC(=O)CNC(=O)CNC(=O)[C@H](Cc2ccc(O)cc2)NCc2ccccc2)CC(=O)NC[C@@H](C(=O)N[C@@H](CCCNC(=N)N)C(=O)N2CCC[C@H]2C(=O)N[C@@H](CCCCN)C(N)=O)NC(=O)[C@H](CCCNC(=N)N)NC1=O"
label_value = "inactive"

[[record]]
smiles_notation = "C[C@H](NCc1ccccc1)C(=O)NCC(=O)NCC(=O)N[C@@H](Cc1ccccc1)C(=O)N[C@@H]1CC(=O)NC[C@@H](C(=O)N[C@@H](CCCNC(=N)N)C(=O)N2CCC[C@H]2C(=O)N[C@@H](CCCCN)C(N)=O)NC(=O)[C@H](CCCNC(=N)N)NC(=O)[C@H](CCCNC(=N)N)NC1=O"
label_value = "inactive"

[[record]]
smiles_notation = "N=C(N)NCCC[C@@H]1NC(=O)[C@H](CCCNC(=N)N)NC(=O)[C@H](NC(=O)[C@H](Cc2ccccc2)NC(=O)CNC(=O)CNC(=O)[C@H](Cc2ccc(O)cc2)NCc2ccccc2)CC(=O)NCCC[C@@H](C(=O)N[C@@H](CCCNC(=N)N)C(=O)N2CCC[C@H]2C(=O)N[C@@H](CCCCN)C(N)=O)NC1=O"
label_value = "active"


* * *

biological target: Kappa-type opioid receptor (Homo sapiens) (UniProt P41145); test: Agonist activity at kappa-opioid receptor (unknown origin) at 10 uM after 90 mins by [35S]GTPgammaS binding assay; type: functional
Active and inactive are the calls of the source. The rule behind the calls is not given here.
Possible outcomes: true for active, false for inactive

[[record]]
compound = "N=C(N)NCCC[C@@H]1NC(=O)[C@H](CCCNC(=N)N)NC(=O)[C@H](NC(=O)[C@H](Cc2ccccc2)NC(=O)CNC(=O)CNC(=O)[C@H](Cc2ccc(O)cc2)NCCc2ccccc2)CC(=O)NC[C@@H](C(=O)N[C@@H](CCCNC(=N)N)C(=O)N2CCC[C@H]2C(=O)N[C@@H](CCCCN)C(N)=O)NC1=O"
target_entity = "Kappa-type opioid receptor (Homo sapiens) (UniProt P41145)"
label_value = "true"

[[record]]
compound = "CC1NC(=O)C[C@@H](NC(=O)[C@H](Cc2ccccc2)NC(=O)CNC(=O)CNC(=O)[C@H](Cc2ccc(O)cc2)NCc2ccccc2)C(=O)N[C@@H](CCCNC(=N)N)C(=O)N[C@@H](CCCNC(=N)N)C(=O)NC1C(=O)N[C@@H](CCCNC(=N)N)C(=O)N1CCC[C@H]1C(=O)N[C@@H](CCCCN)C(N)=O (some centres undefined)"
target_entity = "Kappa-type opioid receptor (Homo sapiens) (UniProt P41145)"
label_value = "true"

[[record]]
compound = "C=CCN[C@@H](Cc1ccc(O)cc1)C(=O)NCC(=O)NCC(=O)N[C@@H](Cc1ccccc1)C(=O)N[C@@H]1CC(=O)NC[C@@H](C(=O)N[C@@H](CCCNC(=N)N)C(=O)N2CCC[C@H]2C(=O)N[C@@H](CCCCN)C(N)=O)NC(=O)[C@H](CCCNC(=N)N)NC(=O)[C@H](CCCNC(=N)N)NC1=O"
target_entity = "Kappa-type opioid receptor (Homo sapiens) (UniProt P41145)"
label_value = "true"

[[record]]
compound = "C[C@H](NC(=O)[C@@H]1CNC(=O)C[C@@H](NC(=O)[C@H](Cc2ccccc2)NC(=O)CNC(=O)CNC(=O)[C@H](Cc2ccc(O)cc2)NCc2ccccc2)C(=O)N[C@@H](CCCNC(=N)N)C(=O)N[C@@H](CCCNC(=N)N)C(=O)N1)C(=O)N1CCC[C@H]1C(=O)N[C@@H](CCCCN)C(N)=O"
target_entity = "Kappa-type opioid receptor (Homo sapiens) (UniProt P41145)"
label_value = "false"

